Attribution: patent US20240108702A1

ASSAY_INFO: in vivo
CONDITION: rat
Where a SMILES comes first, the peptide text is derived from it. Bridges are numbered along the chain shown (N, C = ends).
MEASURED_PARAMETER: MTD (mg/kg)

CC[C@H](C)[C@@H]1NC(=O)[C@@H]2CSSC[C@H](NC(=O)[C@H](CCCNC(=N)N)NC(=O)[C@@H]3CSSC[C@H](NC1=O)C(=O)N[C@@H]([C@@H](C)O)C(=O)N[C@@H](CCCNC(=N)N)C(=O)NCC(=O)N[C@@H](Cc1ccccc1)C(=O)N3)C(=O)N[C@@H](CC(C)C)C(=O)N[C@H]1CSSC[C@H](NC(=O)[C@H](C(C)C)NC(=O)CNC(=O)[C@H](CCCNC(=N)N)NC(=O)[C@H](CCCNC(=N)N)NC1=O)C(=O)N[C@@H](CCCNC(=N)N)C(=O)N2 [Peptide 1] (cyclo(GFCRCLCRRGVCRCICTR); disulfide 3-16, 5-14, 7-12); 20

---

ASSAY_INFO: in vivo
CONDITION: both, cynomolgus monkey, iv, 15 mg/kg/day, AUCτ, cynomolgus, 15 mg/kg/day i.v., Day 10, mean
Where a SMILES comes first, the peptide text is derived from it. Bridges are numbered along the chain shown (N, C = ends).
MEASURED_PARAMETER: AUC (µg·h/mL)

CC[C@H](C)[C@@H]1NC(=O)[C@@H]2CSSC[C@H](NC(=O)[C@H](CCCNC(=N)N)NC(=O)[C@@H]3CSSC[C@H](NC1=O)C(=O)N[C@@H]([C@@H](C)O)C(=O)N[C@@H](CCCNC(=N)N)C(=O)NCC(=O)N[C@@H](Cc1ccccc1)C(=O)N3)C(=O)N[C@@H](CC(C)C)C(=O)N[C@H]1CSSC[C@H](NC(=O)[C@H](C(C)C)NC(=O)CNC(=O)[C@H](CCCNC(=N)N)NC(=O)[C@H](CCCNC(=N)N)NC1=O)C(=O)N[C@@H](CCCNC(=N)N)C(=O)N2 [Peptide 1] (cyclo(GFCRCLCRRGVCRCICTR); disulfide 3-16, 5-14, 7-12); 173

---

ASSAY_INFO: in vivo
CONDITION: both, Sprague-Dawley, rat, iv
Where a SMILES comes first, the peptide text is derived from it. Bridges are numbered along the chain shown (N, C = ends).
MEASURED_PARAMETER: NOAEL at 7 days (mg/kg/day)

CC[C@H](C)[C@@H]1NC(=O)[C@@H]2CSSC[C@H](NC(=O)[C@H](CCCNC(=N)N)NC(=O)[C@@H]3CSSC[C@H](NC1=O)C(=O)N[C@@H]([C@@H](C)O)C(=O)N[C@@H](CCCNC(=N)N)C(=O)NCC(=O)N[C@@H](Cc1ccccc1)C(=O)N3)C(=O)N[C@@H](CC(C)C)C(=O)N[C@H]1CSSC[C@H](NC(=O)[C@H](C(C)C)NC(=O)CNC(=O)[C@H](CCCNC(=N)N)NC(=O)[C@H](CCCNC(=N)N)NC1=O)C(=O)N[C@@H](CCCNC(=N)N)C(=O)N2 [Peptide 1] (cyclo(GFCRCLCRRGVCRCICTR); disulfide 3-16, 5-14, 7-12); 10

---

ASSAY_INFO: in vivo
CONDITION: both, cynomolgus monkey, iv, 10 mg/kg/day, AUC0-∞, cynomolgus, 10 mg/kg/day i.v., Day 10, mean
Where a SMILES comes first, the peptide text is derived from it. Bridges are numbered along the chain shown (N, C = ends).
MEASURED_PARAMETER: AUC(0-inf) (µg·h/mL)

CC[C@H](C)[C@@H]1NC(=O)[C@@H]2CSSC[C@H](NC(=O)[C@H](CCCNC(=N)N)NC(=O)[C@@H]3CSSC[C@H](NC1=O)C(=O)N[C@@H]([C@@H](C)O)C(=O)N[C@@H](CCCNC(=N)N)C(=O)NCC(=O)N[C@@H](Cc1ccccc1)C(=O)N3)C(=O)N[C@@H](CC(C)C)C(=O)N[C@H]1CSSC[C@H](NC(=O)[C@H](C(C)C)NC(=O)CNC(=O)[C@H](CCCNC(=N)N)NC(=O)[C@H](CCCNC(=N)N)NC1=O)C(=O)N[C@@H](CCCNC(=N)N)C(=O)N2 [Peptide 1] (cyclo(GFCRCLCRRGVCRCICTR); disulfide 3-16, 5-14, 7-12); 125
